settings: in 1,4-dioxane, 288.15 K
measured-attribute: solubility (mole fraction)

Brc1cc(Br)cc(Br)c1 : 0.0656

---

conditions: in DMF, 313.15 K
measured-attribute: solubility (mole fraction)

Brc1cc(Br)cc(Br)c1 : 0.0295

---

conditions: in DMAc, 313.15 K
measured-attribute: solubility (mole fraction)

Brc1cc(Br)cc(Br)c1 : 0.041

---

conditions: in DMAc, 318.15 K
measured-attribute: solubility (mole fraction)

Brc1cc(Br)cc(Br)c1 : 0.0491

---

conditions: in DMAc, 288.15 K
measured-attribute: solubility (mole fraction)

Brc1cc(Br)cc(Br)c1 : 0.0159

---

details: in 1,4-dioxane, 303.15 K
measured-attribute: solubility (mole fraction)

Brc1cc(Br)cc(Br)c1 : 0.0972

---

conditions: in DMAc, 323.15 K
measured-attribute: solubility (mole fraction)

Brc1cc(Br)cc(Br)c1 : 0.0582

---

conditions: in DMAc, 308.15 K
measured-attribute: solubility (mole fraction)

Brc1cc(Br)cc(Br)c1 : 0.0346

---

details: in 1,4-dioxane, 318.15 K
measured-attribute: solubility (mole fraction)

Brc1cc(Br)cc(Br)c1 : 0.141

---

conditions: in 1,4-dioxane, 323.15 K
measured-attribute: solubility (mole fraction)

Brc1cc(Br)cc(Br)c1 : 0.157

---

conditions: in DMF, 303.15 K
measured-attribute: solubility (mole fraction)

Brc1cc(Br)cc(Br)c1 : 0.0202

---

conditions: in DMAc, 328.15 K
measured-attribute: solubility (mole fraction)

Brc1cc(Br)cc(Br)c1 : 0.0683

---

settings: in DMAc, 303.15 K
measured-attribute: solubility (mole fraction)

Brc1cc(Br)cc(Br)c1 : 0.0292

---

details: in 1,4-dioxane, 293.15 K
measured-attribute: solubility (mole fraction)

Brc1cc(Br)cc(Br)c1 : 0.0742

---

details: in DMAc, 298.15 K
measured-attribute: solubility (mole fraction)

Brc1cc(Br)cc(Br)c1 : 0.024

---

settings: in DMF, 308.15 K
measured-attribute: solubility (mole fraction)

Brc1cc(Br)cc(Br)c1 : 0.0244

---

settings: in DMF, 328.15 K
measured-attribute: solubility (mole fraction)

Brc1cc(Br)cc(Br)c1 : 0.0521

---

conditions: in DMF, 293.15 K
measured-attribute: solubility (mole fraction)

Brc1cc(Br)cc(Br)c1 : 0.0127

---

conditions: in DMF, 318.15 K
measured-attribute: solubility (mole fraction)

Brc1cc(Br)cc(Br)c1 : 0.0355

---

conditions: in 1,4-dioxane, 308.15 K
measured-attribute: solubility (mole fraction)

Brc1cc(Br)cc(Br)c1 : 0.111

---

details: in 1,4-dioxane, 298.15 K
measured-attribute: solubility (mole fraction)

Brc1cc(Br)cc(Br)c1 : 0.0851
